MIC values by entry
Tested on: Staphylococcus aureus
TEST_SUMMARY: Antibacterial activity against Staphylococcus aureus MTCC 96 after 24 hrs by NCCLS M7-A5 method
Format: functional
CONDITION_NOTES: MTCC 96, 24 h
Give your result as the value with the unit written after it.

Use these answered entries as a reference point.
{"COMPOUND": "COc1ccc(C2NC(=O)c3c(C)cc(C)nc3N2)c(OC)c1 (stereo unspecified)", "MIC": "12.5 µg/mL"}
{"COMPOUND": "Cc1cc(C)c2c(=O)[nH]c(-c3ccco3)nc2n1", "MIC": "25 µg/mL"}
{"COMPOUND": "Cc1cc(C)c2c(n1)NC(c1ccco1)NC2=O (stereo unspecified)", "MIC": "12.5 µg/mL"}
{"COMPOUND": "COc1ccc(-c2nc3nc(C)cc(C)c3c(=O)[nH]2)c(O)c1", "MIC": "50 µg/mL"}
{"COMPOUND": "Cc1cc(C)c2c(n1)NC(c1cccs1)NC2=O (stereo unspecified)", "MIC": "12.5 µg/mL"}

Consider now this further compound.
Query Cc1cc(C)c2c(n1)NC(c1cc(C)c(O)c(C)c1)NC2=O (stereo unspecified) yields MIC of 3.25 µg/mL
